parameter: melting point

INSERT INTO assay_data (compound, parameter, result) VALUES
  ('Cn1nc2ccc(S)nn2c1=O', 'melting point', '> 280 °C'),
  ('CCCN(c1ncnc2[nH]cnc12)n1cccc1', 'melting point', '181 to 183 °C'),
  ('COc1cc2c(cc1OC)CN(CCc1ccc(N)cc1)CC2', 'melting point', '120 °C'),
  ('C=C(c1cc(F)ccc1OCCCC)n1ccnc1', 'melting point', '107 to 109 °C'),
  ('COc1cccc(NC(=O)NC2N=C(c3ccccc3)c3cccc(C)c3N(C)C2=O)c1 (stereo unspecified)', 'melting point', '215 to 217 °C'),
  ('Cc1cc(C)c(Nc2nc(C)ccc2S(=O)(=O)c2ccc(OCc3ccccn3)cc2)c(C)c1', 'melting point', '182 to 184 °C');
